# System: HEK293T (UBE3A T485A transfected, BAR Wnt reporter)
# assay-remarks: Renilla luciferase signal (cell health) relative to plate median (fold (linear ratio)); higher = higher Renilla signal
# condition-description: concentration: 0.01 uM; 24 h
The full ranking holds about 1,100 compounds; the median of “Renilla luciferase signal (cell health) relative to plate median” is about 0.97, and the highest 2% start at about 1.6. The entries come from a sample that favours the highest values as a whole.
Can you tell me Renilla luciferase signal for the items I'm about to list?
Answers are plain numbers.

# molecule, experimental-target, Renilla luciferase signal
records = [
    ("CCOC(=O)C(C)OC(=O)c1cc(Oc2ccc(C(F)(F)F)cc2Cl)ccc1[N+](=O)[O-] (stereo not drawn) [Lactofen]", "HEK293T (UBE3A T485A transfected, BAR Wnt reporter)", 0.928),
    ("CCSC(=O)N1CCCCCC1 [Molinate]", "HEK293T (UBE3A T485A transfected, BAR Wnt reporter)", 0.998),
]

Asked: Give Renilla luciferase signal for CNC(=O)ON=C(C)SC [Methomyl]
Given back: 0.945

----------
# System: HEK293T (UBE3A T485A transfected, BAR Wnt reporter)
# assay-remarks: Renilla luciferase signal (cell health) relative to plate median (fold (linear ratio)); higher = higher Renilla signal
# condition-description: concentration: 1 uM; 24 h
The full ranking holds about 1,100 compounds; the median of “Renilla luciferase signal (cell health) relative to plate median” is about 0.97, and the highest 2% start at about 1.6. For the sample, the highest values were picked, then their nearest neighbours and some compounds at random.
Can you tell me Renilla luciferase signal for the items I'm about to list?
One number for each entry.

# molecule, Renilla luciferase signal
records = [
    ("CCNc1nc(Cl)nc(NC(C)C)n1", 0.877),
    ("CCC(C)C1OC2(C=CC1C)CC1CC(CC=C(C)C(OC3CC(OC)C(OC4CC(OC)C([NH2+]C)C(C)O4)C(C)O3)C(C)C=CC=C3COC4C(O)C(C)=CC(C(=O)O1)C34O)O2.O=C([O-])c1ccccc1 (stereo not drawn) [Emamectin benzoate]", 0.877),
]

// next entry
Asked: Give Renilla luciferase signal for OCCCBr
Given back: 0.896

----------
# System: HEK293T (UBE3A T485A transfected, BAR Wnt reporter)
# assay-remarks: Renilla luciferase signal (cell health) relative to plate median (fold (linear ratio)); higher = higher Renilla signal
# condition-description: concentration: 0.1 uM; 24 h
In all, about 1,100 compounds were measured (“Renilla luciferase signal (cell health) relative to plate median”: median about 0.97, highest 2% from about 1.6 on). This excerpt belongs to a sample that is enriched for the highest values.
experimental-readout: Renilla luciferase signal
Answers are plain numbers.

# compound, Renilla luciferase signal
records = [
    ("C1CC2OC2CC1C1CO1 (centres undefined) [4-Vinyl-1-cyclohexene dioxide]", 0.978),
    ("O=C(O)COc1ccc(Cl)cc1Cl [2,4-Dichlorophenoxyacetic acid]", 1),
    ("CCC(CC)Nc1c([N+](=O)[O-])cc(C)c(C)c1[N+](=O)[O-] [Pendimethalin]", 0.996),
]

Asked: Give Renilla luciferase signal for O=C(O)COc1nc(Cl)c(Cl)cc1Cl [Triclopyr]
Given back: 0.979

----------
Can you tell me Renilla luciferase signal for the items I'm about to list?
# System: HEK293T (UBE3A T485A transfected, BAR Wnt reporter)
# assay-remarks: Renilla luciferase signal (cell health) relative to plate median (fold (linear ratio)); higher = higher Renilla signal
# condition-description: concentration: 100 uM; 24 h
The full ranking holds about 1,100 compounds; the median of “Renilla luciferase signal (cell health) relative to plate median” is about 0.97, and the highest 2% start at about 1.6. For the sample, the highest values were picked, then their nearest neighbours and some compounds at random.
Answers are plain numbers.

Worked examples, 5 molecules total:
# molecule, experimental-readout, quantitative-result
measured = [
    ("CC(C)COC(=O)c1ccccc1C(=O)OCC(C)C [Diisobutyl phthalate]", "Renilla luciferase signal", 1.01),
    ("Clc1cc(Cl)c(Cl)cc1Cl", "Renilla luciferase signal", 0.504),
    ("[Cl-].[Cl-].[Hg+2] [Mercuric chloride]", "Renilla luciferase signal", 0.0217),
    ("Fc1ccc(Oc2ccnc3cc(Cl)cc(Cl)c23)cc1", "Renilla luciferase signal", 0.994),
    ("Cc1ccccc1[N+](=O)[O-]", "Renilla luciferase signal", 1.33),
]

Give measured Renilla luciferase signal for every item shown.
1. CSC1=N[C@@](C)(c2ccccc2)C(=O)N1Nc1ccccc1
2. COc1cc(-c2ccc(N)c(OC)c2)ccc1N
3. [N-]=[N+]=[N-].[Na+] [Sodium azide]
4. CCCN(CC)CC1COC2(CCC(C(C)(C)C)CC2)O1 (stereo not drawn)
5. COc1cc(Cl)c(OC)cc1Cl
6. O=C(O)c1nc(Cl)ccc1Cl
7. C#CC(C)(C)NC(=O)c1cc(Cl)cc(Cl)c1 [Propyzamide]

Given back:
0.165
0.388
1.29
0.0856
1.91
1.8
1.72

Asked: Give Renilla luciferase signal for O=P(Oc1ccccc1)(Oc1ccccc1)Oc1ccccc1 [Triphenyl phosphate]
Given back: 1.02

----------
Can you tell me Renilla luciferase signal for the items I'm about to list?
# System: HEK293T (UBE3A T485A transfected, BAR Wnt reporter)
# assay-remarks: Renilla luciferase signal (cell health) relative to plate median (fold (linear ratio)); higher = higher Renilla signal
# condition-description: concentration: 100 uM; 24 h
In all, about 1,100 compounds were measured (“Renilla luciferase signal (cell health) relative to plate median”: median about 0.97, highest 2% from about 1.6 on). What follows is part of a selection rich in the highest values, with near analogues and random picks from the rest.
Give bare numbers.

Worked examples, 2 compounds total:
# compound, quantitative-result
records = [
    ("CC(C)(C)c1ccccc1O", 0.378),
    ("O=C(O)C1(c2ccc3c(c2)OC[C@H](Cc2ccc(-c4ccccc4)cc2)[C@H]3O)CCCC1", 0.0901),
]

Give measured Renilla luciferase signal for every item shown.
1. CSC(C)(C)C=NO
2. COP(N)(=O)SC (centres undefined)
3. OCCOc1ccccc1
4. CC(c1ccc(O)cc1)(c1ccc(O)cc1)c1ccc(O)cc1
5. CNC(=S)[S-].O.O.O.[Na+] [Metam-sodium hydrate]
6. C[n+]1ccc(-c2cc[n+](C)cc2)cc1
7. CNC(=O)N(C)c1nnc(C(C)(C)C)s1

Given back:
1.09
2.27
1.74
0.0116
1.67
2.18
1.26

----------
Can you tell me Renilla luciferase signal for the items I'm about to list?
# Tested on: HEK293T (UBE3A T485A transfected, BAR Wnt reporter)
# assay-remarks: Renilla luciferase signal (cell health) relative to plate median (fold (linear ratio)); higher = higher Renilla signal
# condition-description: concentration: 1 uM; 24 h
In all, about 1,100 compounds were measured (“Renilla luciferase signal (cell health) relative to plate median”: median about 0.97, highest 2% from about 1.6 on). This is one part of a sample in which the highest values are shown more often than they occur.
One number for each entry.

Worked examples, 3 compounds total:
# compound, experimental-target, quantitative-result
measured = [
    ("Nc1c(Cl)cc([N+](=O)[O-])cc1Cl [Dicloran]", "HEK293T (UBE3A T485A transfected, BAR Wnt reporter)", 0.894),
    ("O=S(=O)(O)C(F)(F)C(F)(F)C(F)(F)C(F)(F)C(F)(F)C(F)(F)C(F)(F)C(F)(F)F", "HEK293T (UBE3A T485A transfected, BAR Wnt reporter)", 0.993),
    ("CCC(=O)C(CC(C)N(C)C)(c1ccccc1)c1ccccc1.Cl (centres undefined) [Methadone hydrochloride]", "HEK293T (UBE3A T485A transfected, BAR Wnt reporter)", 1.01),
]

// next entry
Asked: Write down the reported Renilla luciferase signal (system: HEK293T (UBE3A T485A transfected, BAR Wnt reporter)) of O=C1C2(Cl)C3(Cl)C4(Cl)C(Cl)(Cl)C5(Cl)C3(Cl)C1(Cl)C5(Cl)C24Cl (centres undefined) [Kepone]
Given back: 0.982

----------
# Tested on: HEK293T (UBE3A T485A transfected, BAR Wnt reporter)
# assay-remarks: Renilla luciferase signal (cell health) relative to plate median (fold (linear ratio)); higher = higher Renilla signal
# condition-description: concentration: 100 uM; 24 h
Whole data set: some 1,100 compounds, median “Renilla luciferase signal (cell health) relative to plate median” near 0.97, cut for the highest 2% near 1.6. Many of the other results were omitted from the sample, so the highest values are more common in it than they were.
experimental-readout: Renilla luciferase signal
Answers are plain numbers.

# compound, Renilla luciferase signal
data = [
    ("CCNc1nc(Cl)nc(NC(C)(C)C)n1", 0.981),
]

Give measured Renilla luciferase signal for every item shown.
1. O=C(O)C(Cl)(Cl)Cl
2. Oc1ccc2ccc3cccc4ccc1c2c34 [1-Hydroxypyrene]
3. CC1=C(C(=O)Nc2ccccc2)SCCO1
4. CCN(CC)c1ccccc1
5. Cc1nn(-c2cc(NS(C)(=O)=O)c(Cl)cc2Cl)c(=O)n1C(F)F

Given back:
1: 1.35; 2: 0.811; 3: 2.12; 4: 1.47; 5: 1.21

Give measured Renilla luciferase signal for every item shown.
1. C[N+]1(C)CCCCC1.[Cl-] [Mepiquat chloride]
2. CCNC(=O)NC(=O)/C(C#N)=N/OC
3. O=C(O)COc1nc(Cl)c(Cl)cc1Cl

Given back:
1: 1.31; 2: 2.39; 3: 1.84

Origin of the recorded values: the supplement of paper PMC9254222
